Reference source for all entries: patent US20240043444A1

Catalogue of molecules with associated pIC50
- Tested on: ATXN3 Pre-mRNA (exon 4 skipping)
- experimental-protocol: RT-qPCR Assay to Quantify Exon 4 Skipping in ATXN3 Pre-mRNA in Cells
- Format: cell-based
- stated-conditions: cells incubated with compound 24 h, normalised to GAPDH, 7-point concentration curve
pIC50: −log10 of the molar value.

Consider the reported pIC50 for these molecules:
Cc1c(C[C@H](C)N)sc2c(NCc3ccno3)nc(Cl)nc12	≥ 6.30
Cc1c(C[C@H](C)N)sc2c(NCc3nc(F)cs3)nc(Cl)nc12	≥ 6.30
C[C@H](N)Cc1sc2c(NCc3ccncc3F)nc(Cl)nc2c1Br	≥ 6.30
C[C@H](N)Cc1sc2c(NCc3cccs3)nc(Cl)nc2c1C1CC1	≥ 6.30

Now look at this one.
query: Item "Cc1ccc(CNc2nc(Cl)nc3c(C)c(C[C@H](C)N)sc23)o1" : provide pIC50
result: 5.70 to 5.82

====

- Tested on: ATXN3 Pre-mRNA (exon 4 skipping)
- experimental-protocol: RT-qPCR Assay to Quantify Exon 4 Skipping in ATXN3 Pre-mRNA in Cells
- Format: cell-based
- stated-conditions: cells incubated with compound 24 h, normalised to GAPDH, 7-point concentration curve
Catalogue of compounds with associated IC50

Consider the reported IC50 for these compounds:
Cc1c(C[C@H](C)N)sc2c(NCc3cccnc3F)nc(Cl)nc12 [Cpd 60]	2000 to 3000 nM
Cc1ccoc1CNc1nc(Cl)nc2c(C)c(C[C@H](C)N)sc12 [Cpd 30]	1000 to 1500 nM
Cc1csc(CNc2nc(Cl)nc3c(C)c(C[C@H](C)N)sc23)n1 [Cpd 27]	2000 to 3000 nM
Cc1c(C[C@H](C)N)sc2c(NCc3ncccc3F)nc(Cl)nc12 [Cpd 59]	1000 to 1500 nM
Cc1c(C[C@H](C)N)sc2c(NCc3cccs3)nc(Cl)nc12 [Cpd 28]	≤ 500 nM

query: Item Cc1c(C[C@@H](N)CCF)sc2c(NCc3ccco3)nc(Cl)nc12 [Cpd 51] : provide IC50
result: ≤ 500 nM

query: Item Cc1cnc(CNc2nc(Cl)nc3c(C)c(C[C@H](C)N)sc23)s1 [Cpd 31] : provide IC50
result: 2000 to 3000 nM

query: Item Cc1c(C[C@H](C)CN)sc2c(NCc3ccco3)nc(Cl)nc12 [Cpd 70] : provide IC50
result: 500 to 1000 nM

query: Item Cc1nc(NCc2ccco2)c2sc(C[C@H](C)N)c(C)c2n1 [Cpd 15] : provide IC50
result: ≤ 500 nM

query: Item Cc1c(C[C@H](C)N)sc2c(NCc3ccncc3F)nc(Cl)nc12 [Cpd 35] : provide IC50
result: ≤ 500 nM

====

- System: ATXN3 Pre-mRNA (exon 4 skipping)
- experimental-protocol: RT-qPCR Assay to Quantify Exon 4 Skipping in ATXN3 Pre-mRNA in Cells
- Type: cell-based
- stated-conditions: cells incubated with compound 24 h, normalised to GAPDH, 7-point concentration curve
pIC50: −log10 of the molar value.
measure: pIC50

Cc1c(C[C@@H](C)CN)sc2c(NCc3ccco3)nc(Cl)nc12	5.70 to 5.82
Cc1c(C[C@H](C)N)sc2c(NCc3ncc(F)s3)nc(Cl)nc12	≥ 6.30

query: Item "CC[C@H](N)Cc1sc2c(NCc3ccns3)nc(Cl)nc2c1C" : provide pIC50
result: ≥ 6.30

query: Item "CC(C)[C@H](N)Cc1cc2nc(Cl)nc(NCc3ccco3)c2s1" : provide pIC50
result: 6.00 to 6.30

query: Item "Cc1c(C[C@H](C)N)sc2c(NCc3cnco3)nc(Cl)nc12" : provide pIC50
result: 6.00 to 6.30

====

Catalogue of molecules with associated IC50
- Test system: Endogenous Total ATXN3 (tATXN3) Protein
- experimental-protocol: Endogenous Total ATXN3 (tATXN3) Protein Assay (MSD immunoassay of cell lysates)
- Format: cell-based
- stated-conditions: cells incubated with compound 48 h; 7-point concentration curve; MSD plate readout

CC[C@H](N)Cc1sc2c(NCc3ccns3)nc(Cl)nc2c1C	≤ 500 nM

query: Item "Cc1c(C[C@H](C)NC2CCC2)sc2c(NCc3ccco3)nc(Cl)nc12" : provide IC50
result: 1500 to 2000 nM

query: Item "Cc1c(C[C@H](C)N)sc2c(NCc3cccs3)nc(Cl)nc12" : provide IC50
result: ≤ 500 nM

query: Item "Cc1c(C[C@H](C)N)sc2c(NCc3sccc3F)nc(Cl)nc12" : provide IC50
result: ≤ 500 nM

query: Item "Cc1c(C[C@H](C)N)sc2c(NCc3ccco3)nc(Br)nc12" : provide IC50
result: ≤ 500 nM

query: Item "Cc1ccoc1CNc1nc(Cl)nc2c(C)c(C[C@H](C)N)sc12" : provide IC50
result: 1500 to 2000 nM

query: Item "Cc1c(C[C@H](C)N)sc2c(NCc3ccncc3F)nc(Cl)nc12" : provide IC50
result: ≤ 500 nM

====

Catalogue of molecules with associated pIC50
- System: Endogenous Total ATXN3 (tATXN3) Protein
- experimental-protocol: Endogenous Total ATXN3 (tATXN3) Protein Assay (MSD immunoassay of cell lysates)
- Format: cell-based
- stated-conditions: cells incubated with compound 48 h; 7-point concentration curve; MSD plate readout
pIC50: −log10 of the molar value.

Cc1c(C[C@H](C)N)sc2c(NCc3cnco3)nc(Cl)nc12	5.82 to 6.00
Cc1c(C[C@@H](N)CCF)sc2c(NCc3ccco3)nc(Cl)nc12	≥ 6.30
Cc1c(C[C@H](C)N)sc2c(NCc3ncccc3F)nc(Cl)nc12	5.70 to 5.82
Cc1c(C[C@H](C)N)sc2c(NCc3nccs3)nc(Cl)nc12	≥ 6.30
Cc1c(C[C@H](C)N)sc2c(NCc3ncccn3)nc(Cl)nc12	< 5.70
C[C@H](N)Cc1sc2c(NCc3cccs3)nc(Cl)nc2c1Br	≥ 6.30

Now look at this one.
query: Item "Cc1c(C[C@@H]2CCOC(=O)N2)sc2c(NCc3ccco3)nc(Cl)nc12" : provide pIC50
result: < 5.70

====

- Test system: Endogenous Total ATXN3 (tATXN3) Protein
- experimental-protocol: Endogenous Total ATXN3 (tATXN3) Protein Assay (MSD immunoassay of cell lysates)
- Format: cell-based
- stated-conditions: cells incubated with compound 48 h; 7-point concentration curve; MSD plate readout
pIC50: −log10 of the molar value.
Catalogue of compounds with associated pIC50

Consider the reported pIC50 for these compounds:
Cc1c(C[C@H](C)N)sc2c(NCc3nc(F)cs3)nc(Cl)nc12	≥ 6.30
Cc1c(C[C@@H](N)CCO)sc2c(NCc3ccco3)nc(Cl)nc12	≥ 6.30
C[C@H](N)Cc1sc2c(NCc3ccncc3F)nc(Cl)nc2c1Br	≥ 6.30
Cc1cnc(CNc2nc(Cl)nc3c(C)c(C[C@H](C)N)sc23)s1	< 5.70
Cc1c(C[C@H](C)N)sc2c(NCc3ccc(F)s3)nc(Cl)nc12	≥ 6.30
C[C@H](N)Cc1sc2c(NCc3ccco3)nc(Cl)nc2c1Br	≥ 6.30
Cc1c(C[C@@H](N)CO)sc2c(NCc3cccs3)nc(Cl)nc12	≥ 6.30
C[C@H](N)Cc1sc2c(NCc3cccs3)nc(Cl)nc2c1C1CC1	≥ 6.30
Cc1c(C[C@H](C)N)sc2c(NCc3ccco3)nc(Cl)nc12	≥ 6.30
Cc1c(C[C@H](C)N)sc2c(NCc3ncc(F)s3)nc(Cl)nc12	≥ 6.30

query: Item "Cc1ccc(CNc2nc(Cl)nc3c(C)c(C[C@H](C)N)sc23)o1" : provide pIC50
result: < 5.70

query: Item "Cc1c(C[C@H](C)N)sc2c(NCc3ccno3)nc(Cl)nc12" : provide pIC50
result: ≥ 6.30

query: Item "Cc1c(C[C@H](C)N)sc2c(NCc3c(F)cncc3F)nc(Cl)nc12" : provide pIC50
result: 5.82 to 6.00

query: Item "CCc1c(C[C@H](C)N)sc2c(NCc3ccco3)nc(Cl)nc12" : provide pIC50
result: ≥ 6.30

query: Item "Cc1c(C[C@H](C)N)sc2c(NCc3cncs3)nc(Cl)nc12" : provide pIC50
result: 5.70 to 5.82

query: Item "CC(C)[C@H](N)Cc1cc2nc(Cl)nc(NCc3ccco3)c2s1" : provide pIC50
result: ≥ 6.30

query: Item "Cc1c(C[C@H](C)N)sc2c(NCc3cccnc3F)nc(Cl)nc12" : provide pIC50
result: < 5.70

====

- Test system: Endogenous Total ATXN3 (tATXN3) Protein
- experimental-protocol: Endogenous Total ATXN3 (tATXN3) Protein Assay (MSD immunoassay of cell lysates)
- Format: cell-based
- stated-conditions: cells incubated with compound 48 h; 7-point concentration curve; MSD plate readout
measure: IC50

Consider the reported IC50 for these compounds:
Cc1c(C[C@@H](C)CN)sc2c(NCc3ccco3)nc(Cl)nc12	> 2000 nM
Cc1c(C[C@H](C)CN)sc2c(NCc3ccco3)nc(Cl)nc12	1000 to 1500 nM

Now look at this one.
query: Answer briefly: IC50 recorded on Endogenous Total ATXN3 (tATXN3) Protein for "Cc1nc(NCc2ccco2)c2sc(C[C@H](C)N)c(C)c2n1"
result: 500 to 1000 nM
